Method Description: recombinant barcode read abundance after kanamycin selection (control-corrected) (log10(CPM+1)); higher = more efficient recombination; sequences stand for … in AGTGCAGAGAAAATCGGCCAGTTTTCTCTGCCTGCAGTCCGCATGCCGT…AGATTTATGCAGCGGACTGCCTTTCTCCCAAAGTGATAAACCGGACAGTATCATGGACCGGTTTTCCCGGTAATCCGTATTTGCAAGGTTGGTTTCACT; site = the 11-nt target
Readout Label: recombinant barcode read abundance (log10)
Form field (numeric): enter value without unit.

CAAAGTCCTTGGGTTCTAACCTGTTGCTT (site CAAAGTCCTAG) | 0.152
GGCCGGGCTTGGGTTCTAACCTGTTGCGG (site GCCCGGGCTCC) | 0.286
GAGCGAGCTTGGGTTCTAACCTGTTGCGG (site GAGCGAGCTCA) | 0.0195
CGAGCAGCTTGGGTTCTAACCTGTTGCCT (site CGCGCAGCTAG) | 0.152

Let us examine a further case.
Reported recombinant barcode read abundance (log10) for AACAAGACTTGGGTTCTAACCTGTTGCCT (site AACAAGACTAG) was 1.29

* * *

Method Description: recombinant barcode read abundance after kanamycin selection (control-corrected) (log10(CPM+1)); higher = more efficient recombination; sequences stand for … in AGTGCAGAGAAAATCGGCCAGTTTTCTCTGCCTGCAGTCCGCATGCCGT…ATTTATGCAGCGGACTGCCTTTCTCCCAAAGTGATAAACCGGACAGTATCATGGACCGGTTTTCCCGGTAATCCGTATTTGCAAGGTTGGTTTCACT; site = the 11-nt target
Think of 0.09 as a floor: if recombinant barcode read abundance (log10) stands on it or above, it is 1 (yes); beneath it, 0 (no).

GGGCGTGAATGGGTTCTAACCTGTTGCCTAG [GGGCGTGCTAG_LTGcore_AA_RTGcore_CT] (site GGGCGTGCTAG) (LTG core: AA, RTG core: CT) | 0 (no)
GGCTCCCTATGGGTTCTAACCTGTTGCGGAG [GGCTCCCCTCC_LTGcore_TA_RTGcore_CT] (site GGCTCCCCTCC) (LTG core: TA, RTG core: CT) | 1 (yes)
GGCTCCCGGTGGGTTCTAACCTGTTGCGGAG [GGCTCCCCTCC_LTGcore_GG_RTGcore_CT] (site GGCTCCCCTCC) (LTG core: GG, RTG core: CT) | 0 (no)

Quick check: does ATGTCCCCGTGGGTTCTAACCTGTTGCTCCG [ATGTCCCCTGA_LTGcore_CG_RTGcore_CG] (site ATGTCCCCTGA) (LTG core: CG, RTG core: CG) have recombinant barcode read abundance (log10) greater than or equal to 0.09?
1 (yes)

Quick check: does AAACACACGTGGGTTCTAACCTGTTGCCTCG [AAACACACTAG_LTGcore_CG_RTGcore_CG] (site AAACACACTAG) (LTG core: CG, RTG core: CG) have recombinant barcode read abundance (log10) greater than or equal to 0.09?
1 (yes)

* * *

Method Description: recombinant barcode read abundance after kanamycin selection (control-corrected) (log10(CPM+1)); higher = more efficient recombination; sequences stand for … in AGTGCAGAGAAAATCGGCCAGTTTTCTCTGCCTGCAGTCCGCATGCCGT…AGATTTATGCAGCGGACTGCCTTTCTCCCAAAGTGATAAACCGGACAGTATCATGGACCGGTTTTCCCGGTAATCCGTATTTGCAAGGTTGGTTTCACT; site = the 11-nt target
Readout Label: recombinant barcode read abundance (log10)
Form field (numeric): enter value without unit.

Reported recombinant barcode read abundance (log10) for CACGTTACTTGGGTTCTAACCTGTTGCCT (site CACGTTACTAG) was 0.628
